Source of measurements: patent US20140107109A1

molecular target: UniProt P56817; assay: In vitro enzymatic BACE FRET assay; format: biochemical; conditions: average IC50, enzyme assay; read-out: BACE1 FRET assay IC50
Sequence (P56817 46-501): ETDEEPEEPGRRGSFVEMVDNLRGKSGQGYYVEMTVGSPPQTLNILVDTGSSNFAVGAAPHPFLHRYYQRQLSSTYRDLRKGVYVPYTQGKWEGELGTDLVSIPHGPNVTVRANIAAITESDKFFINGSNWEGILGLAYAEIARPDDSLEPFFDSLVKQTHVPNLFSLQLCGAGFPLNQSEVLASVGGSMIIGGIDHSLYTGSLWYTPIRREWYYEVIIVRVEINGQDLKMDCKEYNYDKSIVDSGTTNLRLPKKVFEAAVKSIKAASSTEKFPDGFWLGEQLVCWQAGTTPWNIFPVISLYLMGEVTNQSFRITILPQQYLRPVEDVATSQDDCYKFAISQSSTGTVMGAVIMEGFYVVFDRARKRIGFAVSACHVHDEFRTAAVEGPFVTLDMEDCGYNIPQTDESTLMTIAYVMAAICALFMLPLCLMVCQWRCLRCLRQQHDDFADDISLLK
Assay metric: IC50 (nM)

Worked cases, IC50 given:
compound="COc1ccc(C(=O)Nc2ccc(F)c([C@]3(C)CS(=O)(=O)C(C)(C)C(N)=N3)c2)c(F)c1 [Example 354]" measure_unit=nM meas_value=42.4
compound="COCc1cc(Cl)cnc1C(=O)Nc1ccc(F)c([C@]2(C)CS(=O)(=O)[C@@](C)(F)C(N)=N2)c1 [Example 328]" measure_unit=nM meas_value=0.51
compound="CC1(C)C(N)=N[C@](CF)(c2cc(Nc3ncc(F)c4cc(OCC5CCC5)cnc34)ccc2F)CS1(=O)=O [Example 434]" measure_unit=nM meas_value=1.5
compound="CC1(C)C(N)=N[C@](C)(c2cc(Oc3ncc(C(N)=O)c4sccc34)ccc2F)CS1(=O)=O [Example 292]" measure_unit=nM meas_value=2010
compound="CC#CCOc1cnc(C(=O)Nc2ccc(F)c([C@]3(C)CS(=O)(=O)[C@@](C)(F)C(N)=N3)c2)cn1 [Example 317]" measure_unit=nM meas_value=0.21

(A) Cc1c(C(=O)Nc2ccc(F)c([C@]3(CF)CS(=O)(=O)C(C)(C)C(N)=N3)c2)nc2ccc(Cl)cn12 [Example 158]
(B) CC(C)(C)Cc1ccc(Oc2ccc(F)c([C@]3(C)CS(=O)(=O)C(C)(C)C(N)=N3)c2)nc1 [Example 257]
(C) C[C@@]1(c2cc(Br)ccc2F)CS(=O)(=O)C2(CCC2)C(N)=N1 [Example 113]
(D) CCOc1cnc2c(Nc3ccc(F)c([C@]4(C)CS(=O)(=O)C(C)(C)C(N)=N4)c3)nccc2c1 [Example 422]
(E) CC1(C)C(N)=N[C@](CF)(c2cc(Nc3nccc4nc(C(F)(F)F)cnc34)ccc2F)CS1(=O)=O [Example 234]
Give the ascending ranking of the items by reported IC50. Output spec: labels arranged per the requested ranking. E, A, D, C, B
(E: 2.03 nM, A: 3.03 nM, D: 18.4 nM, C: 4050 nM, B: 18900 nM)

---

tested on: Aβ40 in conditioned medium of cells stably expressing Amyloid Precursor Protein (APP); experiment: In vitro BACE cell-based assay (HEK cell assay), Aβ40 sandwich ELISA; settings: Homo sapiens, HEK293; Aβ40, 24 h incubation
Assay metric: IC50 (nM)

compound="CC1(C)C(N)=N[C@](C)(c2cc(Nc3nccc4cc(Cl)cnc34)cc(F)c2F)CS1(=O)=O [Example 69]" target_under_test="Aβ40 in conditioned medium of cells stably expressing Amyloid Precursor Protein (APP)" assay_metric=IC50 meas_value=23.1

(1) COc1cnc(C(=O)Nc2ccc(F)c([C@]3(C)CSCC(N)=N3)c2)cn1
(2) COc1cnc2c(Nc3ccc(F)c(C4(C(F)F)CS(=O)(=O)C(C)(C)C(N)=N4)c3)nccc2c1 (centres unmarked)
(3) COc1cnc(C(=O)Nc2ccc(F)c(C3(CF)CS(=O)(=O)C(C)(C)C(N)=N3)c2)cn1 (centres unmarked)
(4) COc1cnc(C(=O)Nc2ccc(F)c([C@]3(C)CS(=O)(=O)[C@@](C)(F)C(N)=N3)c2)cn1
Endpoint returns the given compounds ordered by ascending IC50. Output spec: labels arranged per the requested ranking. 1, 3, 4, 2
(1: 7 nM, 3: 27.9 nM, 4: 80.1 nM, 2: 1820 nM)
